Each record here notes measured CC50.
Assay: Cytotoxicity against human HEK293T cells assessed as decrease in cell viability by MTT assay
Assay type: cell-based, HEK-293T

Please review the following examples before continuing.
INSERT INTO measurements (compound, value_reported) VALUES
  ('NC(=O)c1c(NC(=O)c2cnn3c(C(F)F)cc(-c4ccccc4)nc23)sc2c1CCC2', '> 1000 µM'),
  ('CC1=CC(c2ccccc2)n2nc(NC(=O)c3ccc(OC(C)C)cc3)nc2N1 (centres undefined)', '> 250 µM'),
  ('CCCOc1ccc(C(=O)Nc2nc3n(n2)C(c2ccccc2)C=C(C)N3)cc1 (centres undefined)', '> 250 µM'),
  ('Cc1cc(-c2ccccc2)n2nc(NC(=O)c3ccccc3)nc2n1', '> 250 µM'),
  ('CC1=CC(c2ccccc2)n2nc(NC(=O)c3ccccc3F)nc2N1 (centres undefined)', '> 250 µM');

For CC1=CC(c2ccccc2)n2nc(NC(=O)c3ccccc3)nc2N1 (centres undefined) the compound record lists CC50 as > 250 µM

The reported value for CCCCc1ccc(C(=O)Nc2nc3n(n2)C(c2ccccc2)C=C(C)N3)cc1 (centres undefined) in terms of CC50 is > 250 µM

Record "CSCC[C@H](N)C(=O)N[C@@H](CC(=O)O)C(=O)N[C@H](C(=O)N[C@@H](CC(N)=O)C(=O)N1CCC[C@H]1C(=O)N[C@H](C(=O)N[C@@H](CC(C)C)C(=O)N[C@@H](CC(C)C)C(=O)N[C@@H](Cc1ccccc1)C(=O)N[C@@H](CC(C)C)C(=O)N[C@@H](CCCCN)C(=O)N[C@H](C(=O)N1CCC[C@H]1C(=O)N[C@@H](C)C(=O)N[C@@H](CCC(N)=O)C(=O)O)C(C)C)[C@@H](C)O)C(C)C" . Reported CC50: > 100 µM

The measured CC50 associated with NC(=O)c1ncn([C@@H]2O[C@H](CO)[C@@H](O)[C@H]2O)n1 [RIBAVIRIN] reads > 250 µM

CC50 in this record for "Cc1cc(-c2ccccc2)n2nc(C(=O)Nc3sc4c(c3C(N)=O)CCCCC4)nc2n1" : > 250 µM

Consider "Cc1cc(-c2ccccc2)nc2nc(C(=O)Nc3sc4c(c3C(N)=O)CCCCC4)nn12" . Its measured CC50 is > 250 µM

CC50 recorded for this compound, CCCCOc1ccc(C(=O)Nc2nc3n(n2)C(c2ccccc2)C=C(C)N3)cc1 (centres undefined) , is > 250 µM

What the record says about CC1=CC(c2ccccc2)n2nc(NC(=O)c3ccc(Cl)cc3)nc2N1 (centres undefined) : CC50 is > 250 µM

Given item COc1ccc(C(=O)Nc2nc3n(n2)C(c2ccccc2)C=C(C)N3)cc1 (centres undefined) , the value recorded as its CC50 is > 250 µM

Noted for "NC(=O)c1c(NC(=O)c2nc3nc(-c4ccccc4)cc(C(F)(F)F)n3n2)sc2c1CCCC2" : its CC50 reads > 250 µM

Given item CC1=CC(c2ccccc2)n2nc(NC(=O)c3ccc([N+](=O)[O-])cc3)nc2N1 (centres undefined) , the value recorded as its CC50 is > 250 µM

According to the records, this compound "Cc1cc(-c2ccccc2)nc2nc(C(=O)Nc3ccccc3)nn12" displays CC50 of > 250 µM

Entry "Nc1ccc(O)c2c1C(=O)c1c(N)ccc(O)c1C2=O" , CC50 reported as > 250 µM

The measured CC50 associated with COC(=O)C1=C(N)N(c2cccc(Cl)c2C)C2=C(C(=O)CCC2)C1c1ccc2c(c1)OCO2 (centres undefined) reads > 1000 µM
